Documented z-score across a set of compounds
experiment: E. coli acrAB mutant growth effects, primary screen, E. coli filamentation inducers, strain DRC39, OD650, 24 h (AID 1178); conditions: higher = more signal, called active from +8 up or from −8 down;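 further: growth measured as culture turbidity by optical density at 650 nm; test concentration not given here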
experimental readout: z-score

1. CC(C)(C)OC(=O)CC[C@@]1(C(=O)NCc2ccccc2)N=C(c2ccc(OCCCO)cc2)O[C@@H]1c1ccccc1N=[N+]=[N-] : 2.98
2. CCCCCCc1nc(C2CC2)cc2c1[Si](C(C)C)(C(C)C)O[C@H]2c1ccccc1 : -0.476
3. CN(C)C(=O)[C@]1(CCS(=O)(=O)c2ccccc2)N=C(c2ccc(OCCCO)cc2)O[C@@H]1c1ccccc1N=[N+]=[N-] : 0.292
4. C=CCN1Cc2ccccc2[C@H]2OC(c3ccc(OCCCO)cc3)=N[C@@]2(CC=C)C1=O : 0.36
5. CC1CC/C=C\[C@H]2OC34C=CCN(C(C)C)C(=O)[C@H]3N(CCCCCCO)C(=O)[C@@H]4C2C(=O)O1 (some centres not stated) : 1.05
6. COCCOC(=O)N1C(=O)[C@@]2(c3ccccc31)[C@H](C(=O)N1CCN(c3ncccn3)CC1)[C@H]1C(=O)O[C@H](c3ccccc3)[C@H](c3ccccc3)N1[C@@H]2c1ccc(O)cc1 : -0.612
7. COC(=O)c1c2oc(c1C(=O)OC)C(=O)N(Cc1ccccc1)Cc1cn(nn1)C[C@H](Cc1ccccc1)NC(=O)N[C@H](CO)CC2 : 1.33

* * *

assay: CREB reporter modulators without forskolin, primary screen, cell-based, PC12, CRE-LacZ reporter, unstimulated (AID 1145); conditions: no forskolin, luminescence, 4.5 h, higher = more signal, called active from +8 up or from −8 down
experimental readout: z-score

1. O=C(NCCCCCNC(=O)/C(Cc1ccccc1)=N/O)OCc1ccccc1 : 3.77
2. COCCOC(=O)N1C(=O)[C@@]2(c3cc(C#CC4=CCCCC4)ccc31)[C@H](C(=O)N1CCCCCCC1)[C@H]1C(=O)O[C@H](c3ccccc3)[C@H](c3ccccc3)N1[C@@H]2c1ccc(O)cc1 : -0.815
3. CC(C)N1CC=CC23O[C@@H]4C=CCOC(=O)[C@@H]4[C@H]2C(=O)N(CCCO)[C@@H]3C1=O (some centres undefined) : -1.31
4. CCCCCCc1nc(-c2cc(C)c(OC)c(C)c2)c(C)c2c1[Si](C(C)C)(C(C)C)OC2 : 0.148
5. CC[C@H]1C2=C3C(CC[C@H]4C(OCc5ccc(F)cc5C(F)(F)F)OC[C@](C)([C@@H]34)N(C(=O)OC(C)(C)C)C2)C(COC)C1COC (some centres undefined) : -0.379
6. CO[C@H]1O[C@H](CO)[C@@H](OC(=O)Nc2ccc3c(c2)OCO3)[C@H](OC(=O)c2cc3ccccc3[nH]2)[C@H]1OC(=O)c1cc2ccccc2[nH]1 : 1.03
7. CCCCCCc1nc(C2CC2)cc2c1[Si](C(C)C)(C(C)C)OC2 : 1.59
8. COC(=O)[C@@]1(Cc2ccc(OC)cc2)[C@H]2c3cc(C(=O)N4CCCC4)n(Cc4cccc5ccccc45)c3C[C@H]2CN1C(=O)c1ccccc1 : 0.0041
9. CC(C)C(CO)N1C(=O)[C@@H]2C3C(=O)OCCC/C=C\[C@H]3OC23C=CCN(C(C)(C)C)C(=O)[C@@H]13 (some centres undefined) : -0.0778
10. Cc1cc(C)c(C(O)C2C=CC3C(=O)N(c4ccccc4)C(=O)C3N2Nc2ccc(C(C)C)cc2)c(C)c1 (centres undefined) : 0.629
11. NC(=O)NCC#Cc1ccc2c(c1)[C@]1(C(=O)N2)[C@H](C(=O)O)[C@H]2C(=O)O[C@H](c3ccccc3)[C@H](c3ccccc3)N2[C@@H]1c1ccc(OCCO)cc1 : -0.195
12. CCOC(=O)C[C@H]1[C@H](OC(=O)c2ccccc2-c2ccccc2)[C@@H](NC(=O)c2ccc(-c3ccccc3)cc2)c2cc(OCCCO)ccc2N1C(=O)c1ccc2ccccc2n1 : -0.686
13. CCOC(=O)c1ccc(NC(=O)O[C@H]2[C@H](OC(=O)Nc3ccc4c(c3)OCO4)[C@H](OC(=O)Nc3ccc4c(c3)OCO4)[C@@H](OC)O[C@@H]2CO)cc1 : 0.0918
14. O=C(N1CCCCC1)[C@@]1(CCS(=O)(=O)c2ccccc2)COC(c2ccc(OCCCO)cc2)=N1 : 0.62

* * *

Measured composite z-score values are reported for all entries that follow.
tested on: Plasmodium falciparum Sir2 (PF13_0152, Sir2A); experiment: pfSir2 binders on small-molecule microarrays, primary screen, biochemical, small-molecule microarray, 635 nm fluorescence (AID 1098); conditions: small-molecule microarray binding, fluorescence 635 nm; higher = more signal;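 further: score merges spot fluorescence intensity with its signal-to-noise ratio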
experimental readout: composite z-score

1. O=C1O[C@H](c2ccccc2)[C@H](c2ccccc2)N2[C@H]1[C@@H](C(=O)N1CCN(c3ncccn3)CC1)[C@]1(C(=O)Nc3ccc(C#CC4(O)CCCCCC4)cc31)[C@H]2c1ccc(OCCO)cc1 : 1.82
2. O=C1NC(=O)C2C1C=CC(C(O)CCc1ccccc1)N2Nc1ccc(Cl)cc1Cl (centres undefined) : 0.187
3. CC(C)[Si](C#CCCCC#N)(O[C@H](c1ccccc1)c1cn([C@H](CO)Cc2ccccc2)nn1)C(C)C : 0.726
4. Cc1cc(C)c(C(O)C2C=CC3C(=O)NC(=O)C3N2Nc2ccc(Cl)cc2Cl)c(C)c1 (centres undefined) : 0.651
5. O=C(NCCCCCNC(=O)/C(Cc1ccccc1)=N/O)OCc1ccccc1 : -0.263
6. CN1C(=O)C2C=CC(C(O)c3ccc(F)cc3)N(Nc3ccccc3)C2C1=O (centres undefined) : 1.4
7. CCOC(=O)c1ccc(NC(=O)O[C@H]2[C@H](OC(=O)Nc3ccc4c(c3)OCO4)[C@H](OC(=O)Nc3ccc4c(c3)OCO4)[C@@H](OC)O[C@@H]2CO)cc1 : 1.56
8. O=C1OCC=C[C@H]2OC34C=CCN(Cc5ccccc5)C(=O)[C@H]3N(CCCCCCO)C(=O)[C@@H]4[C@@H]12 (some centres undefined) : 1.82
9. COCCOC(=O)N1C(=O)[C@@]2(c3cc(C#CC4(O)CCCCCC4)ccc31)[C@H](c1ccc(O)cc1)N1[C@H](c3ccccc3)[C@H](c3ccccc3)OC(=O)[C@H]1[C@@H]2C(=O)NC[C@H](O)c1ccccc1 : 0.355
10. O=C(CS)NCCCCCCNC(=O)[C@H]1C[C@H]2C(=O)N[C@@H](Cc3ccccc3)C(=O)N2[C@H]1c1ccc(O)cc1 : 1.67
11. C=CCOC(=O)[C@H]1[C@@H]2C(=O)O[C@@H](c3ccccc3)[C@@H](c3ccccc3)N2[C@@H](c2ccc(OCCOC(=O)[C@H]3C[C@H]4C(=O)N[C@@H](CCCCNC(C)=O)C(=O)N4[C@H]3c3ccc(O)cc3)cc2)[C@]12C(=O)Nc1ccccc12 : 0.611
12. CCCC[C@@H](O)C1=C(COc2ccccc2)C[C@H]2C(=O)N(C)C(=O)[C@H]2[C@H]1CO : 0.119
13. CCCNC(=O)[C@@H]1c2ccccc2C(=O)N(C(C)C)[C@H]1c1ccc(CO)cc1 : 0.32
14. CO[C@H]1O[C@H](CO)[C@@H](OC(=O)Nc2ccc3c(c2)OCO3)[C@H](OC(=O)c2cc3ccccc3[nH]2)[C@H]1OC(=O)c1cc2ccccc2[nH]1 : 0.787

* * *

target: Torsin-1A (Homo sapiens) (UniProt O14656); assay: torsin A binders from cell lysate, primary screen, small-molecule microarray, wild-type, 635/667 nm (AID 1149); details: COS7 hTOR1A-WT lysate, 635 nm fluorescence, higher = more signal
Sequence (O14656 whole entry, looked up): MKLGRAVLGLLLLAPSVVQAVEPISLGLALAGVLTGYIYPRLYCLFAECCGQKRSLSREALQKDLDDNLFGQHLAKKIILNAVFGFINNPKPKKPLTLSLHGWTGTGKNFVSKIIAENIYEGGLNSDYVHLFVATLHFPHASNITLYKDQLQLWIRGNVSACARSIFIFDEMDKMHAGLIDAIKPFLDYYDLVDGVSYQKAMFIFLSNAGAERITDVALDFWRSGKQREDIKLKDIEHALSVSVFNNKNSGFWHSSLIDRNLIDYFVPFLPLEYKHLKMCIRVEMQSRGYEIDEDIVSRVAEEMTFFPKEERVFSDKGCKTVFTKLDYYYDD
experimental readout: composite z-score

1) C=C(/C(=C/C[C@H](OC(C)=O)c1ccccc1OCCO)c1cc(C(=O)OC)ccc1OC)C(C)C : 0.356
2) CC=CC(O)C1C=CC2C(=O)N(c3ccccc3)C(=O)C2N1Nc1ccccc1F (centres undefined) : 0.804
3) COCCOC(=O)N1C(=O)[C@@]2(c3cc(C#CC4=CCCCC4)ccc31)[C@H](c1ccc(O)cc1)N1[C@H](c3ccccc3)[C@H](c3ccccc3)OC(=O)[C@H]1[C@@H]2C(=O)N1CCN(c2ncccn2)CC1 : -0.692
4) O=C1C=C(c2ccccc2)C(=O)c2ccc([C@H]3Oc4ccccc4S(=O)(=O)N4CCC[C@@H]34)cc21 : 0.0359
5) COc1ccc(CN(C2=CC[C@@]3(C(N)=O)C(=O)C(Cl)=C(Cl)C(=O)[C@@]3(C#N)C2)S(=O)(=O)c2ccc(Br)cc2)cc1 : 0.385
6) O=C1C2C=CC(C(O)c3ccc(Br)cc3)N(Nc3ccccc3F)C2C(=O)N1c1ccccc1 (centres undefined) : -0.423
7) CN(C)CCCNC(=O)[C@@]1(c2ccc([N+](=O)[O-])cc2)CC(=O)N(CC23CC4CC(CC(C4)C2)C3)[C@@H]1c1ccc(CO)cc1I : 0.835
8) C=CCNC(=O)[C@H]1[C@@H]2C(=O)O[C@@H](c3ccccc3)[C@@H](c3ccccc3)N2[C@@H](c2ccc(O)cc2)[C@]12C(=O)Nc1ccc(C#CC3(O)CCCCCC3)cc12 : 0.935
9) Cc1ccc(S[C@]2(C(=O)O)CC(=O)N(Cc3ccccc3Cl)[C@@H]2c2ccc(CO)cc2I)cc1 : 0.294
10) COc1ccc([Si](C)(C)[C@@H]2[C@@H](CCO)O[C@]3(C(=O)N(Cc4ccc(N5CCCCC5=O)cc4)c4ccccc43)[C@H]2C)cc1 : 0.0458
11) COC(=O)[C@@]1(Cc2ccccc2)[C@H]2c3cc(C(=O)N(C)C)n(CCc4ccc(O)c(OC)c4)c3C[C@H]2CN1C(=O)c1ccccc1 : 0.0405
12) C=C(/C(=C/C[C@@H](OC(C)=O)c1cccc(OCCO)c1)c1cc(C(=O)OC)ccc1OC)C(C)C : 0.875
13) COc1cc2c(cc1O)C(C)N(Cc1ccc([N+](=O)[O-])o1)CC2 (centres undefined) : 0.682
14) CO[C@H]1O[C@H](CO)[C@@H](OC(=O)Nc2ccc3c(c2)OCO3)[C@H](OC(=O)c2cc3ccccc3[nH]2)[C@H]1OC(=O)c1cc2ccccc2[nH]1 : 0.103
